- target: Cholecystokinin receptor type A (Rattus norvegicus, UniProt P30551)
- Sequence (P30551 whole entry): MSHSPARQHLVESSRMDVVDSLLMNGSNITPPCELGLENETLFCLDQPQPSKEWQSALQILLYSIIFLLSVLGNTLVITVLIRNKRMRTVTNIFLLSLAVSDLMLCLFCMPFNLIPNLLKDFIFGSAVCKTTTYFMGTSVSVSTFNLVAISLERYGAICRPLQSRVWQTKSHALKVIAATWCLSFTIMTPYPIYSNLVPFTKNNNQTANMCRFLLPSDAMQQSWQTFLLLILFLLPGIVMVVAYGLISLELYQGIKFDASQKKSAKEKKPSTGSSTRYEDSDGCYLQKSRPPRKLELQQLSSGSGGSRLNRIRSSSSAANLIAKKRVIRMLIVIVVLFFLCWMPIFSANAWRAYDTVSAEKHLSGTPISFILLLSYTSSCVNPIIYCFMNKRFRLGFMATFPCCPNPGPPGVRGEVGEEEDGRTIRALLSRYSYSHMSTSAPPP
- method: The concentration (nM) producing half-maximal inhibition of specific binding of [1251] Bolton Hunter CCK-8 to CCK receptors in the rat pancreas (CCK-A);value ranges from 900 to 1900
observation.type: pIC50
Scale: negative log10 of molar concentration, which is what pIC50 denotes.

## Task I would be grateful if you could share the reported pIC50 for CC(Cc1c[nH]c2ccccc12)(NC(=O)OC1C2CC3CC(C2)CC1C3)C(=O)NC[C@H](NC(=O)CCC(=O)NO)c1ccccc1 (single isomer, unassigned) .
## Result 5.74

----------
- target: Gastrin/cholecystokinin type B receptor (Mus musculus)
- Sequence (P56481 whole entry): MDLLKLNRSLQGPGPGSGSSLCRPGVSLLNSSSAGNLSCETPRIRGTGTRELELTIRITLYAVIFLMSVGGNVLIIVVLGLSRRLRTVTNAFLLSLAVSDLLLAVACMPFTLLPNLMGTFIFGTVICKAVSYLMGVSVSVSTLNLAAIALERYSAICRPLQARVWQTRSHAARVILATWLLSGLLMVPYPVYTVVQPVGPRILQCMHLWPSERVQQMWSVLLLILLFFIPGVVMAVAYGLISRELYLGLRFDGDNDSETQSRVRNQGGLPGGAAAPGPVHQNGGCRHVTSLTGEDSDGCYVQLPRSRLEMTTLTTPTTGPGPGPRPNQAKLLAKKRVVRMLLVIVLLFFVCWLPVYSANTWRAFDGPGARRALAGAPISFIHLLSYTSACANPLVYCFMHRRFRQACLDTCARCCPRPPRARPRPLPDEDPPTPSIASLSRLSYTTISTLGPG
- method: The concentration (nM) producing half-maximal inhibition of specific binding of [1251] Bolton Hunter CCK-8 to CCK receptors in the mouse cerebral cortex (CCK-B);value ranges from 62 to 98
- Format: tissue-based
observation.type: IC50 (nM)
State the answer as a number, implicitly in nM.

## Task I would be grateful if you could share the reported IC50 for CC(Cc1c[nH]c2ccccc12)(NC(=O)OC1C2CC3CC(C2)CC1C3)C(=O)NC[C@H](NC(=O)CCNS(=O)(=O)C(F)(F)F)c1ccccc1 (single isomer, unassigned) .
## Result 77

Reference source: ChEMBL document CHEMBL1152007
